Assay: Permeability of the compound at pH 5.5 at 100 uM after 4 hrs by PAMPA
READOUT_LABEL: Papp at 4 h, 100 µM (×10⁻⁶ cm/s)

Some compounds with recorded Papp at 4 h, 100 µM:
stdin: Please look at this compound and report its Papp at 4 h, 100 µM: `c1ccc2c(c1)CN[C@@H](CN(CCCCNC1CCNCC1)[C@H]1CCCc3cccnc31)C2`
stdout: 1.9

stdin: Please look at this compound and report its Papp at 4 h, 100 µM: `NC/C=C/CN(C[C@H]1Cc2ccccc2CN1)[C@H]1CCCc2cccnc21`
stdout: 26.4

stdin: Please look at this compound and report its Papp at 4 h, 100 µM: `c1ccc2c(c1)CN[C@@H](CN(CCCCNCc1ccncc1)[C@H]1CCCc3cccnc31)C2`
stdout: 0.65

stdin: Please look at this compound and report its Papp at 4 h, 100 µM: `C(=C\CN(C[C@H]1Cc2ccccc2CN1)[C@H]1CCCc2cccnc21)/CNC1CCOCC1`
stdout: 10.5

stdin: Please look at this compound and report its Papp at 4 h, 100 µM: `CC(C)(CCN(C[C@H]1Cc2ccccc2CN1)[C@H]1CCCc2cccnc21)CNC1CCC(F)(F)CC1`
stdout: 1.75

stdin: Please look at this compound and report its Papp at 4 h, 100 µM: `C(=C\CN(C[C@H]1Cc2ccccc2CN1)[C@H]1CCCc2cccnc21)/CNCC1CCOCC1`
stdout: 3.35

stdin: Please look at this compound and report its Papp at 4 h, 100 µM: `c1ccc2c(c1)CN[C@@H](CN(CCCCN(Cc1ccncc1)Cc1ccncc1)[C@H]1CCCc3cccnc31)C2`
stdout: 18

stdin: Please look at this compound and report its Papp at 4 h, 100 µM: `FC1(F)CCC(NC/C=C/CN(C[C@H]2Cc3ccccc3CN2)[C@H]2CCCc3cccnc32)CC1`
stdout: 0.9

[I] c1cncc(CN(CCCCN(C[C@H]2Cc3ccccc3CN2)[C@H]2CCCc3cccnc32)Cc2cccnc2)c1
[II] NCCCCN(C[C@H]1Cc2ccccc2CN1)[C@H]1CCCc2cccnc21
[III] c1ccc2c(c1)CN[C@@H](CN(CCCCNC1CCCCC1)[C@H]1CCCc3cccnc31)C2
stdin: Sort these compounds on Papp at 4 h, 100 µM so the largest reading comes first. The reply should contain the labels ordered as requested.
stdout: I, III, II
(I: 9.1 ×10⁻⁶ cm/s, III: 1.45 ×10⁻⁶ cm/s, II: 0.6 ×10⁻⁶ cm/s)
